% labelled HEL cells by entry:
TGT: T1, CD117 (c-Kit, stem cell factor receptor) on HEL or TF1 human erythroleukemia cells (human, UniProt P10721 26-976)
T1 construct: whole, on cells
ASSAY PROTOCOL: flow cytometry on HEL cells; 10 µl/2.10^5 cells
All answers are understood in %, so give the number only.

Completed entries (count: 3):
- BINDER: "humanized antibody 36-5 Hz114 (antibody, human IgG1, V domains shown, The variable regions were cloned into expression vector p3U containing the human IgG1 constant region; also called H-36.5Hz27 + L-36.5Hz31) VH: QVQLVQSGAEVKKPGASVKVSCKASGYTFTSYWMNWVRQAPGQGLEWMGRIDPSDSEIHYNQKFKDKATLTVDKSTSTAYMELSSLRSEDTAVYYCARDYGSDYYAMDYWGQGTLVTVSS VL: QIVLTQSPAFQSVTPGEKVTITCSASQSVSYMHWYQQKSGTSPKLLIYSTSNLTSGVPSRFSGSGSGTDYTLTISSLEAEDAATYYCHQWSSYPFGGGTKVEIK"
  UNIT NAME: "%"
  % labelled HEL cells: 70
- BINDER: "humanized antibody 36-5 Hz128 (antibody, human IgG1, V domains shown, The variable regions were cloned into vector p3U containing the human IgG1 constant region; also called H-36.5Hz31 + L-36.5Hz31) VH: QVQLVQSGAEVKKPGASVKVSCKASGYTFTSYWMNWVRQAPGQGLEWIGRIDPSDSEIHYNQKFKGRVTMTVDTSTSTAYMELSSLRSEDTAVYYCARDYGSDYYAMDYWGQGTLVTVSS VL: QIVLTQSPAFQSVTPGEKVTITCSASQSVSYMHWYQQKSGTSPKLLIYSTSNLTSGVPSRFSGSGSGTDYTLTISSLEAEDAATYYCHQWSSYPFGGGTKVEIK"
  UNIT NAME: "%"
  % labelled HEL cells: 77
- BINDER: "ch36-05 chimeric monoclonal antibody (antibody, human IgG1, kappa, V domains shown, Murine VH + human IgG1 Fc; murine VL + human Kappa; also called chR036-05; chR036.05) VH: QVQLQQSGAELVKPGAPVKLSCKASGYTFTRYWMNWVKQRPGRGLEWIGRIDPSDSEIHYNQNFKDKATLTVDKSSSTAYIQLSSLTSEDSAVYYCARDYGSDYYAMDYWGQGTSVTVSS VL: QIVLTQSPAIMSASLGEEITLTCSASSSVSYMHWYQQKSGTSPKLLIYSTSNLTSGVPSRFSGSGSGTFYSLTISSVEAEDAADYYCHQWSSYPFGGGTKLEIKR"
  UNIT NAME: "%"
  % labelled HEL cells: 81

Attention now turns to another entry.
Which % labelled HEL cells reading was recorded for the binder humanized antibody 36-5 Hz121 (antibody, human IgG1, V domains shown, The variable regions were cloned into vector p3U containing the human IgG1 constant region; also called H-36.5Hz30 + L-36.5Hz31) VH: QVQLVQSGAEVKKPGASVKVSCKASGYTFTSYWMNWVRQAPGQGLEWMGRIDPSDSEIHYNQKFKGRVTMTVDTSTSTAYMELSSLRSEDTAVYYCARDYGSDYYAMDYWGQGTLVTVSS VL: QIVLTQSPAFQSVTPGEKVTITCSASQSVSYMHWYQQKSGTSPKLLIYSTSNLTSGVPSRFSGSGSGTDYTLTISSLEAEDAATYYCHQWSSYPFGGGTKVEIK ? 70

Data provenance: patent US20220411501A1
